- assayed_system: recombinant human ALK5 (TGF-βR1) protein (Homo sapiens)
- Construct: purchased Life Technologies PR9075A
- Sequence (P36897 34-503): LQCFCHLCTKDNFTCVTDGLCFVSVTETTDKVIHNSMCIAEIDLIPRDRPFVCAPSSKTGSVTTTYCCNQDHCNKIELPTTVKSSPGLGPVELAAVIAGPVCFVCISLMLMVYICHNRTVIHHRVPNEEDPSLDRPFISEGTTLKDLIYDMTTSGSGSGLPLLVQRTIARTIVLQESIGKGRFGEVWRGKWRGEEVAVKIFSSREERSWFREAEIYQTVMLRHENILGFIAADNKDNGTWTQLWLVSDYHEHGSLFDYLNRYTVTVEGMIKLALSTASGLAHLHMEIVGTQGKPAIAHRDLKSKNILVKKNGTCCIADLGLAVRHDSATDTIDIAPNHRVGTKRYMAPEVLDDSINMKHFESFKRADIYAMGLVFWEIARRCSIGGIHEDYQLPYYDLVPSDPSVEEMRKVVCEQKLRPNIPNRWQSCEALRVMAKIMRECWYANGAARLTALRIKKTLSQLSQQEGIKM
- procedure_text: Biochemical ALK5 (TGF-βR1) assay to measure pKi (LANCE Ultra ULight kinase assay)
- test_parameters: apparent pKi from pIC50 by Cheng-Prusoff, read-out: ALK5 pKi (converted)
readout_type: Ki

[[record]]
compound = "Cc1cccc(-c2[nH]cnc2-c2ccc3ncc(-c4cnc(C(=O)O)nc4)cc3c2)n1 [Compound 1142]"
result = "0.398 to 3.16 nM"

[[record]]
compound = "Cc1cccc(-c2n[nH]cc2-c2ccc3nccc(CNCCCN4CCOCC4)c3n2)n1 [Compound 815]"
result = "0.0398 to 0.316 nM"

[[record]]
compound = "Cc1cccc(-c2[nH]cnc2-c2ccc3ncc(C4=CCCC(N)C4)cc3c2)n1 (centres unmarked) [Compound 531]"
result = "< 0.0316 nM"

[[record]]
compound = "Cc1cccc(-c2[nH]cnc2-c2ccc3ncc(NCCN4C[C@@H](C)N[C@@H](C)C4)cc3c2)n1 [Compound 313]"
result = "0.0398 to 0.316 nM"

[[record]]
compound = "Cc1cccc(-c2[nH]ncc2-c2ccc3ncc(C(=O)O)cc3n2)n1 [Compound 553]"
result = "3.98 to 31.6 nM"

